System: Trypanosoma cruzi
Test summary: Trypanosoma cruzi phosphomannomutase and mannose-1-phosphate guanylyltransferase assay
Type: functional
Design: scale not given: direction of the effect not stated beside the values
Measurement conditions: 10 µM
Recorded Percent Effect values for a group of compounds are listed next.
Readout label: Percent Effect (%)

INSERT INTO results (compound, assayed_target, readout_label, measurement) VALUES
  ('O=C(Cc1ccccc1)N1CCC2(CC(=O)N(c3ccsc3)C2)C1 (stereo not drawn)', 'Trypanosoma cruzi', 'Percent Effect', 3.52),
  ('CN(C)c1cc(C(=O)N2CCN(c3cnccn3)CC2)ccn1', 'Trypanosoma cruzi', 'Percent Effect', 3.1),
  ('Cc1cc(NC(=O)NCC(C)N2CCc3ccccc32)no1 (stereo not drawn)', 'Trypanosoma cruzi', 'Percent Effect', -3.54),
  ('CCNC(=O)c1ncn2c1CN(C)S(=O)(=O)c1ccccc1-2', 'Trypanosoma cruzi', 'Percent Effect', -2.58),
  ('CN1CCN(c2cc(CNC(=O)c3ccc(=O)[nH]n3)ccn2)CC1', 'Trypanosoma cruzi', 'Percent Effect', -2.16),
  ('CC(C(=O)NCCCN1CCCCCC1=O)n1cncn1 (stereo not drawn)', 'Trypanosoma cruzi', 'Percent Effect', -1.4),
  ('Cc1cc(OCC(=O)NS(=O)(=O)c2c(C)noc2C)ccc1Cl', 'Trypanosoma cruzi', 'Percent Effect', 4.79),
  ('Cc1ccc(C(=O)NS(=O)(=O)c2cccc3cnccc23)c(=O)[nH]1', 'Trypanosoma cruzi', 'Percent Effect', 0.65),
  ('Cc1nn(C)c(N(C)C)c1CNCc1ccc(OCC(N)=O)cc1', 'Trypanosoma cruzi', 'Percent Effect', -2.61),
  ('Cc1cc(C)n(CC2CCCN2CCc2ccncc2)n1 (stereo not drawn)', 'Trypanosoma cruzi', 'Percent Effect', 12.5),
  ('CC(OCC1CC1)C(=O)N1CCCN(c2ncccc2C#N)CC1 (stereo not drawn)', 'Trypanosoma cruzi', 'Percent Effect', -0.0934),
  ('O=C(NCCCn1ccnc1)N1CCCC1c1ccncc1 (stereo not drawn)', 'Trypanosoma cruzi', 'Percent Effect', -5.36),
  ('Cc1nc(C)c(C(=O)N2CCCC2c2nnc3n2CCCCC3)s1 (stereo not drawn)', 'Trypanosoma cruzi', 'Percent Effect', 0.586),
  ('CN(C)S(=O)(=O)N1C[C@@H](Oc2ccccn2)[C@H]2OCCC[C@H]21', 'Trypanosoma cruzi', 'Percent Effect', 0.493),
  ('Cc1nc(C2CCCCN2C(=O)c2ccccc2)ncc1C(=O)N(C)C (stereo not drawn)', 'Trypanosoma cruzi', 'Percent Effect', -1.97),
  ('Cc1[nH]c(=O)[nH]c(=O)c1CN1CCCC(CCc2ccccc2)C1 (stereo not drawn)', 'Trypanosoma cruzi', 'Percent Effect', -5.02),
  ('Cc1cc(C(=O)NCCn2nc3ccccn3c2=O)[nH]n1', 'Trypanosoma cruzi', 'Percent Effect', -3.1),
  ('CC(C(=O)N1CCCC1)N1CCC(c2nccn2CC2CCC2)CC1 (stereo not drawn)', 'Trypanosoma cruzi', 'Percent Effect', -1.07),
  ('O=C(Cc1ccccc1F)N1CCN(C(=O)c2cccc(F)c2)CC1', 'Trypanosoma cruzi', 'Percent Effect', -7.69),
  ('COc1ccc(CN(C)CC(=O)NC2(C)CCS(=O)(=O)C2)cc1F (stereo not drawn)', 'Trypanosoma cruzi', 'Percent Effect', -5.42),
  ('COc1c(C2CCCN2CC(=O)Nc2cc(C)no2)c(C)nn1C (stereo not drawn)', 'Trypanosoma cruzi', 'Percent Effect', -4.74),
  ('CC1CCN(CCNC(=O)c2cncnc2C(C)C)CC1', 'Trypanosoma cruzi', 'Percent Effect', -5.34),
  ('CN(C)CCO[C@@H]1CC[C@H]2[C@H]1OCCN2C(=O)CCc1ccccc1', 'Trypanosoma cruzi', 'Percent Effect', -2.7),
  ('Cc1nc(C)n(C2CCCN(C(=O)CCCn3ccnc3)C2)n1 (stereo not drawn)', 'Trypanosoma cruzi', 'Percent Effect', -3.91),
  ('COc1cc2cc(C(=O)N[C@@H](C)C(=O)O)n(C)c2c(OC)c1OC', 'Trypanosoma cruzi', 'Percent Effect', -5.89),
  ('CCN(CC)CCNC(=O)c1ccn(COc2cc(C)cc(C)c2)n1', 'Trypanosoma cruzi', 'Percent Effect', -0.197),
  ('CC(CN1CCOCC1)NCC1CCN(c2cnn(C)c(=O)c2)CC1 (stereo not drawn)', 'Trypanosoma cruzi', 'Percent Effect', -1.85),
  ('CCn1cc(NC(=O)NCc2ccc(CN3CCOCC3)cc2)cn1', 'Trypanosoma cruzi', 'Percent Effect', -7.28),
  ('CCn1cnnc1CNC(=O)N1CCOCC1', 'Trypanosoma cruzi', 'Percent Effect', -3.41),
  ('O=C(CN1CCc2cncnc2C1)NCCOc1ccccc1', 'Trypanosoma cruzi', 'Percent Effect', -2.33),
  ('Cc1cc(C2CCCN2CCCc2nc3ccccc3o2)on1 (stereo not drawn)', 'Trypanosoma cruzi', 'Percent Effect', -3.87),
  ('CC(O)CN1CCC(CNCc2c[nH]nc2C(C)(C)C)CC1 (stereo not drawn)', 'Trypanosoma cruzi', 'Percent Effect', -6.7),
  ('CSc1cccc(CNC(=O)C2CC(=O)N(CCN(C)C)C2)c1 (stereo not drawn)', 'Trypanosoma cruzi', 'Percent Effect', -2.82),
  ('CC(C)(C)OC(=O)NC(C)(C)c1noc(CN2CCCCC2)n1', 'Trypanosoma cruzi', 'Percent Effect', -3.02),
  ('CC(=O)N1CCN(C(=O)C(C)n2cncn2)CC1 (stereo not drawn)', 'Trypanosoma cruzi', 'Percent Effect', 1.13),
  ('CC(C)n1ccnc1C1CCN(C(=O)c2ccccc2)CC1', 'Trypanosoma cruzi', 'Percent Effect', 9.8),
  ('COc1c(CNCc2ccnc(N3CCCC3)c2)c(C)nn1C', 'Trypanosoma cruzi', 'Percent Effect', 0.103),
  ('Cc1ccc(CN2CCCn3c(nc(Cn4cncn4)cc3=O)C2)s1', 'Trypanosoma cruzi', 'Percent Effect', 2.43),
  ('N#Cc1ccccc1OCCN1CCC(N2CCNC2=O)CC1', 'Trypanosoma cruzi', 'Percent Effect', 0.65),
  ('O=C1NCC2(CCCN(Cc3ccc(Cl)s3)C2)Oc2ccccc21 (stereo not drawn)', 'Trypanosoma cruzi', 'Percent Effect', 1.18),
  ('CCn1nc(-c2ccccc2F)ccc1=O', 'Trypanosoma cruzi', 'Percent Effect', -9.29),
  ('Cn1ccnc1COc1ccc(CN2CCN(CCO)CC2)cc1', 'Trypanosoma cruzi', 'Percent Effect', -3.18),
  ('CCN1CCC2(CC1)CC(NC(=O)N(C)C)c1cc(C)ccc12 (stereo not drawn)', 'Trypanosoma cruzi', 'Percent Effect', 3.28),
  ('Cc1cc(CNc2ccc(C(=O)N3CCCC(C)C3)cc2C)no1 (stereo not drawn)', 'Trypanosoma cruzi', 'Percent Effect', -6.18),
  ('COC(=O)C1CCN(C(=O)c2ccc(N(C)S(C)(=O)=O)c(C)c2)CC1', 'Trypanosoma cruzi', 'Percent Effect', -31.3),
  ('Cc1csc(N2CCN(Cc3cnc(C)s3)CC2C)n1 (stereo not drawn)', 'Trypanosoma cruzi', 'Percent Effect', 2.94),
  ('COCCNC(=O)Cn1nc(C(C)C)c2cnn(C(C)(C)C)c2c1=O', 'Trypanosoma cruzi', 'Percent Effect', 3.72),
  ('CN(Cc1nccn1CC(F)(F)F)C(=O)c1cccc(C#N)c1', 'Trypanosoma cruzi', 'Percent Effect', -3.21);

###

Assayed target: Tyrosyl-tRNA synthetase, putative (Trypanosoma cruzi (strain CL Brener)) (UniProt Q4DSP6)
Sequence (Q4DSP6 as listed by the source): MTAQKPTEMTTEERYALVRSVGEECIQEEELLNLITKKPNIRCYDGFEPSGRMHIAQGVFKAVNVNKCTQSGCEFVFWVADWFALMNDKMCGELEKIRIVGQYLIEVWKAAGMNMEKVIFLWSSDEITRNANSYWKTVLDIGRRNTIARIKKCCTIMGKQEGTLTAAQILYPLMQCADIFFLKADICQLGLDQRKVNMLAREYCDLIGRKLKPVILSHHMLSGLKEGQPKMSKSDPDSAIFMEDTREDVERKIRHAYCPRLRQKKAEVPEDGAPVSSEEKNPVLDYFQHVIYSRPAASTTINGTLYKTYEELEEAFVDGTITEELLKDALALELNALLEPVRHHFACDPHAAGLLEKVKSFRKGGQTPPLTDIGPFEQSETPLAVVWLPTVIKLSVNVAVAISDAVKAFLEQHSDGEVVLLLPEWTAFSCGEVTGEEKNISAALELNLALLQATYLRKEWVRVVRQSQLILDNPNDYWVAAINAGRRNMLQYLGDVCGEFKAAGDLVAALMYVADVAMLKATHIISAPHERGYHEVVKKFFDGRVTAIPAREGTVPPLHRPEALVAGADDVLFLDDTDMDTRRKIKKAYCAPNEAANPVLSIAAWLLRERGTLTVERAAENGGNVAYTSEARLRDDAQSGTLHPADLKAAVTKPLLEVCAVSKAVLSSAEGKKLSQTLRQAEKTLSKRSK
Test summary: Trypanosoma cruzi tyrosyl tRNA synthetase (TcYRS) SOP
Format: functional
Parameters: scale not given: direction of the effect not stated beside the values
Measurement conditions: 30 µM
Readout label: Percent Effect (%)

INSERT INTO results (compound, readout_label, measurement) VALUES
  ('COC[C@@H]1CC[C@H]2[C@H](CCN2S(=O)(=O)c2ccc(OC)cc2)O1', 'Percent Effect', 5.13),
  ('Cn1cc(C(=O)N2CC[C@@H]3[C@@H]2CCN3Cc2cccc(F)c2)cn1', 'Percent Effect', 10.3),
  ('NC(=O)c1ccc(S(=O)(=O)NC(=O)COc2ccc3c(c2)CCC3)cc1', 'Percent Effect', 10.8),
  ('CCOC(=O)CN1CCC(C(=O)c2cc(F)ccc2F)CC1', 'Percent Effect', 7.32),
  ('Cc1nc(CN2CCCC(CCc3ccc(F)cc3F)C2)c[nH]1 (stereo unspecified)', 'Percent Effect', 7.32),
  ('COc1ccc2c(c1)CN(Cc1nc3ccsc3c(=O)[nH]1)CC2', 'Percent Effect', 1.27),
  ('c1cncc(C2COC3(CCN(CC4CC4)CC3)C2)c1 (stereo unspecified)', 'Percent Effect', 1.22),
  ('CC(=O)N1[C@H](CN(C)C)C[C@@H]2CN(C(=O)c3cccc(F)c3)CC[C@@H]21', 'Percent Effect', 0),
  ('Cc1nc(C2CCCCN2C(=O)c2ccccc2)ncc1C(=O)N(C)C (stereo unspecified)', 'Percent Effect', 1.28),
  ('CCNc1cc2c(nn1)CCN(C(=O)Cc1c(C)noc1C)C2', 'Percent Effect', 1.24),
  ('CCC1=N[C@@]2(CC[C@@H]3CN(C(=O)NC(C)C)C[C@@H]32)C(=O)N1C', 'Percent Effect', 18.3);
